Data provenance is patent US20240391984A1.

target-of-assay: polyclonal IgG (Gammanorm, Octapharma, Sweden)
protocol-text: SPR (Biacore 8K+), variant amine-coupled to CM5, Gammanorm as analyte, steady state fit
measured-property: Kd (nM)
Give bare numbers, in nM.

Known results for binders:
# binder, Kd (nM)
data = [
    ("pAM118 (B3 domain of Protein L; pos 10 N, pos 45 N, pos 60 Y) (designed binder) PKEEVTIKANLIYADGKTQTAEFKGTFEEATAEAYRYADLLAKENGKYTVDVADKGYTLYIKFAGKEKTPEE", 68),
    ("pAM148 (C2 domain of Protein L; pos 10 N, pos 45 N, pos 60 N) (protein) PKEEVTIKVNLIFADGKTQTAEFKGTFEEATAKAYAYADLLAKENGEYTADLEDGGNTINIKFAGKETPETPEE", 35),
    ("pAM167 (B1 domain of Protein L; pos 10 Y, pos 45 H, pos 60 Y) (designed binder) SEEEVTIKAYLIFANGSTQTAEFKGTFEKATSEAYAYADTLKKDHGEYTVDVADKGYTLYIKFAGKEKTPEE", 97),
    ("pAM130 (B3 domain of Protein L; pos 10 Q, pos 45 H, pos 60 Q) (designed binder) PKEEVTIKAQLIYADGKTQTAEFKGTFEEATAEAYRYADLLAKEHGKYTVDVADKGYTLQIKFAGKEKTPEE", 57),
    ("pAM143 (B2 domain of Protein L; pos 10 N, pos 45 N, pos 60 N) (protein) PKEEVTIKANLIYADGKTQTAEFKGTFEEAAAEAYRYADALKKDNGEYTVDVADKGYTLNIKFAGKEKTPEE", 36),
    ("pAM125 (B3 domain of Protein L; pos 10 Q, pos 45 H, pos 60 N) (designed binder) PKEEVTIKAQLIYADGKTQTAEFKGTFEEATAEAYRYADLLAKEHGKYTVDVADKGYTLNIKFAGKEKTPEE", 50),
]

Could you report Kd for every entry in the following list?
1. pAM141 (B1 domain of Protein L; pos 10 N, pos 45 N, pos 60 N) (protein) SEEEVTIKANLIFANGSTQTAEFKGTFEKATSEAYAYADTLKKDNGEYTVDVADKGYTLNIKFAGKEKTPEE
2. pAM159 (C1 domain of Protein L; pos 10 Q, pos 45 A, pos 60 Q) (designed binder) PEEEVTIKAQLIFADGSTQNAEFKGTFAKAVSDAYAYADALKKDAGEYTVDVADKGLTLQIKFAGKKEKPEE
3. pAM126 (B3 domain of Protein L; pos 10 Q, pos 45 N, pos 60 Q) (designed binder) PKEEVTIKAQLIYADGKTQTAEFKGTFEEATAEAYRYADLLAKENGKYTVDVADKGYTLQIKFAGKEKTPEE
4. pAM128 (previously disclosed benchmarking Protein L ligand; B3 domain with pos 10 Q, pos 45 A, pos 60 Q) (designed binder) PKEEVTIKAQLIYADGKTQTAEFKGTFEEATAEAYRYADLLAKEAGKYTVDVADKGYTLQIKFAGKEKTPEE
5. pAM174 (C2 domain of Protein L; pos 10 Y, pos 45 H, pos 60 Y) (designed binder) PKEEVTIKVYLIFADGKTQTAEFKGTFEEATAKAYAYADLLAKEHGEYTADLEDGGNTIYIKFAGKETPETPEE
6. pAM117 (B3 domain of Protein L; pos 10 N, pos 45 N, pos 60 Q) (designed binder) PKEEVTIKANLIYADGKTQTAEFKGTFEEATAEAYRYADLLAKENGKYTVDVADKGYTLQIKFAGKEKTPEE
7. pAM153 (D1 domain; pos 10 N, pos 45 N, pos 60 N) (protein) PKEEVTIKANLIFADGKTQTAEFKGTFEEATAEAYRYADLLAKVNGEYTADLEDGGYTINIKFAGKEQPGEN
8. pAM178 (C4 domain of Protein L; pos 10 Y, pos 45 H, pos 60 Y) (designed binder) PKEEVTIKVYLIFADGKTQTAEFKGTFEEATAEAYRYADLLAKVHGEYTADLEDGGYTIYIKFAGKEQPGENPG

1: 48; 2: 103; 3: 52; 4: 60; 5: 105; 6: 60; 7: 32; 8: 45

Could you report Kd for every entry in the following list?
1. pAM114 (wt B3 domain of Protein L) (protein) PKEEVTIKANLIYADGKTQTAEFKGTFEEATAEAYRYADLLAKENGKYTVDVADKGYTLNIKFAGKEKTPEE
2. pAM161 (C2 domain of Protein L; pos 10 Q, pos 45 A, pos 60 Q) (designed binder) PKEEVTIKVQLIFADGKTQTAEFKGTFEEATAKAYAYADLLAKEAGEYTADLEDGGNTIQIKFAGKETPETPEE
3. pAM165 (C4 domain of Protein L; pos 10 Q, pos 45 A, pos 60 Q) (designed binder) PKEEVTIKVQLIFADGKTQTAEFKGTFEEATAEAYRYADLLAKVAGEYTADLEDGGYTIQIKFAGKEQPGENPG

45
110
38

Could you report Kd for every entry in the following list?
1. pAM179 (D1 domain; pos 10 Y, pos 45 H, pos 60 Y) (designed binder) PKEEVTIKAYLIFADGKTQTAEFKGTFEEATAEAYRYADLLAKVHGEYTADLEDGGYTIYIKFAGKEQPGEN
2. pAM145 (B5 domain of Protein L with H45N backbone; pos 10 N, pos 45 N, pos 60 N) (designed binder) KEQVTIKENIYFEDGTVQTATFKGTFAEATAEAYRYADLLSKENGKYTADLEDGGYTINIRFAGKEEPEE
3. pAM121 (B3 domain of Protein L; pos 10 N, pos 45 H, pos 60 Q) (designed binder) PKEEVTIKANLIYADGKTQTAEFKGTFEEATAEAYRYADLLAKEHGKYTVDVADKGYTLQIKFAGKEKTPEE

1. 75
2. 11
3. 76
